List of pIC50 values.
Target: full-length human BTK (Homo sapiens (Human))
Assay: BTK IC50 enzyme assay (microfluidic off-chip mobility shift kinase assay)
Conditions: incubated for 90 min. at 27 C; read-out: Time Dependent BTK Enzyme Assay IC50
pIC50: −log10 of the molar value.

Summary for this molecule, C=CC(=O)N1CCC(CNc2ncnc(N)c2-c2ccc(Oc3ccc(O)cc3)cc2)CC1 [A94] : pIC50 is < 6.00

Others:
Summary for this molecule, C=CC(=O)N1CCC(CNc2ncnc(N)c2-c2ccc(Oc3ccc(C#N)cc3)cc2)CC1 [A86] : pIC50 is > 6.00

Summary for this molecule, C=CC(=O)N1CC(Nc2ncnc(N)c2-c2ccc(Oc3ccccc3)cc2)C1 [A185] : pIC50 is > 7.00

Summary for this molecule, C=CC(=O)Nc1cncc(Nc2ncnc(N)c2-c2ccc(Oc3ccccc3)cc2)c1 [A186] : pIC50 is > 7.00

Summary for this molecule, C=CC(=O)Nc1cccc(Oc2ncnc(N)c2-c2ccc(OCc3ccc(F)cc3)cc2)c1 [A344] : pIC50 is > 7.00

Summary for this molecule, C=CC(=O)N1CC2(CC(Oc3ncnc(N)c3-c3ccc(Oc4ccncc4)cc3)C2)C1 [A114] : pIC50 is > 7.00

Summary for this molecule, Nc1ncnc(N[C@@H]2CCN(S(=O)(=O)c3c(F)c(F)c(F)c(F)c3F)C2)c1-c1ccc(Oc2ccccc2)cc1 [A178] : pIC50 is > 7.00

Summary for this molecule, C=CC(=O)NCCCNc1ncnc(N)c1-c1ccc(Oc2ccccc2)cc1 [A59] : pIC50 is > 6.00

Summary for this molecule, C=CC(=O)N1CCCC(CNc2ncnc(N)c2-c2ccc(Oc3ccccc3)cc2)C1 (stereo not drawn) [A286] : pIC50 is > 6.00

Summary for this molecule, Nc1cccc(Oc2ccnc(N)c2-c2ccc(Oc3ccccc3)cc2)c1 [A313] : pIC50 is < 6.00

Summary for this molecule, CC#CC(=O)N1CC[C@@H](Nc2ncnc(N)c2-c2ccc(Oc3ccccc3)cc2)C1 [A341] : pIC50 is > 7.00

Summary for this molecule, CC#CC(=O)N1CC2(CC(Nc3ncnc(N)c3-c3ccc(Oc4ccccc4)cc3)C2)C1 [A108] : pIC50 is > 7.00

Summary for this molecule, C#CC(=O)N[C@@H]1CCC[C@H](Nc2ncnc(N)c2-c2ccc(Oc3ccccc3)cc2)C1 (relative stereo) [A64] : pIC50 is > 7.00

Summary for this molecule, C=CC(=O)N1CCO[C@@H](COc2ncnc(N)c2-c2ccc(Oc3ccccc3)cc2)C1 [A66] : pIC50 is > 7.00

Summary for this molecule, C=CC(=O)N1CCC(CNc2nc(N)ncc2-c2ccc(Oc3ccccc3)cc2)CC1 [A25] : pIC50 is < 6.00

Summary for this molecule, C=CC(=O)N[C@H]1C[C@H](Nc2ncnc(N)c2-c2ccc(Oc3ccccc3)cc2)C1 [A117] : pIC50 is > 7.00

Summary for this molecule, CC#CC(=O)N1CCC(COc2ncnc(N)c2-c2ccc(Oc3ccccc3)cc2)CC1 [A9] : pIC50 is > 7.00

Summary for this molecule, C=CC(=O)N1CC2(CC(Oc3ncnc(N)c3-c3ccc(Oc4ccccc4)cc3)C2)C1 [A120] : pIC50 is > 7.00

----------
List of IC50 values.
Molecular target: full-length human BTK (Homo sapiens (Human))
Experiment: BTK IC50 enzyme assay (microfluidic off-chip mobility shift kinase assay)
Settings: incubated for 90 min. at 27 C; read-out: Time Dependent BTK Enzyme Assay IC50

Examples from the recorded data:
Result for C#CC(=O)N1CCC(CNc2ncnc(N)c2-c2ccc(Oc3ccccc3)cc2)CC1 , tested on full-length human BTK (Homo sapiens (Human)), IC50: < 100 nM

Result for C=CC(=O)N1CCC(CNc2ncnc(N)c2-c2ccc3c(c2)OCCO3)CC1 , tested on full-length human BTK (Homo sapiens (Human)), IC50: > 1000 nM

Result for C/C=C/C(=O)Nc1cccc(-c2cnccc2Oc2ccc(Oc3ccccc3)cc2)c1 , tested on full-length human BTK (Homo sapiens (Human)), IC50: > 1000 nM

Result for C=CC(=O)Nc1cccc(Oc2ncnc(N)c2-c2ccc(C(C)(C)O)cc2)c1 , tested on full-length human BTK (Homo sapiens (Human)), IC50: < 100 nM

Result for C=CC(=O)N1CC2(CC(Nc3ncnc(N)c3-c3cnn(Cc4ccccc4)c3)C2)C1 , tested on full-length human BTK (Homo sapiens (Human)), IC50: < 1000 nM

Others:
Result for CC=CC(=O)c1cccc(CNc2ncnc(N)c2-c2ccc(Oc3ccccc3)cc2)c1 , tested on full-length human BTK (Homo sapiens (Human)), IC50: < 100 nM

Result for Nc1ncnc(OC2CC3(C2)CN(C(=O)/C=C/CN2CC(F)C2)C3)c1-c1ccc(Oc2ccccc2)cc1 , tested on full-length human BTK (Homo sapiens (Human)), IC50: < 100 nM

Result for CN(C)C/C=C/C(=O)N1CC[C@H](CNc2ncnc(N)c2-c2ccc(Oc3ccccc3)cc2)C1 , tested on full-length human BTK (Homo sapiens (Human)), IC50: < 1000 nM

Result for C=CC(=O)Nc1cccc(Oc2ncnc(N)c2-c2ccc(Oc3ccccc3F)nc2)c1 , tested on full-length human BTK (Homo sapiens (Human)), IC50: < 100 nM

----------
Molecular target: full-length human BTK (Homo sapiens (Human), UniProt Q06187)
Sequence (Q06187 whole entry): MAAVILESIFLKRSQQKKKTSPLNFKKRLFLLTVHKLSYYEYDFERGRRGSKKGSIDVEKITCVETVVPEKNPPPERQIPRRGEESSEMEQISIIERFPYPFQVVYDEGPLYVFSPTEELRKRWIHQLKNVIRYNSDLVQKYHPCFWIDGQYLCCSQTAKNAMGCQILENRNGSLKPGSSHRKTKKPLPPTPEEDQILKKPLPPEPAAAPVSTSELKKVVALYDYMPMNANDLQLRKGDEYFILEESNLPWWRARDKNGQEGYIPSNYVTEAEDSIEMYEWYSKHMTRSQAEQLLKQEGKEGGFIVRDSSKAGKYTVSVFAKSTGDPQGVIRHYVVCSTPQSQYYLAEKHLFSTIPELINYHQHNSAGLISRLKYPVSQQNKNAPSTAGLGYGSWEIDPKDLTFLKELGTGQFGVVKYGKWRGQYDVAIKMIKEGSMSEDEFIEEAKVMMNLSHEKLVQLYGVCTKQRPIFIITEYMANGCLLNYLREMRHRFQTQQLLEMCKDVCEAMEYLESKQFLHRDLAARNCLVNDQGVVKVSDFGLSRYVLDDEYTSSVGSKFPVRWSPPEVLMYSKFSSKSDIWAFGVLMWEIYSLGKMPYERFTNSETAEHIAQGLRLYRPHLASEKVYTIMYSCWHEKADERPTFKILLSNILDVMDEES
Experiment: BTK IC50 enzyme assay (microfluidic off-chip mobility shift kinase assay)
Format: biochemical
Conditions: incubated for 90 min. at 27 C; read-out: Time Dependent BTK Enzyme Assay IC50
List of IC50 values.

Summary for this compound, N#CC1(C(=O)Nc2cccc(Oc3ncnc(N)c3-c3ccc(Oc4ccccc4)cc3)c2)CC1 : IC50 is > 1000 nM

Summary for this compound, C=CC(=O)N1C2CCC1CC(CNc1ncnc(N)c1-c1cnn(Cc3ccccc3)c1)C2 (centres unmarked) : IC50 is < 1000 nM

Summary for this compound, C=CC(=O)Nc1cccc(-c2cncnc2Nc2ccc(Oc3ccccc3)cc2)c1 : IC50 is < 1000 nM

Summary for this compound, C=CC(=O)Nc1cccc(-c2cnc(N)nc2Oc2ccc(Oc3ccccc3)cc2)c1 : IC50 is < 100 nM

Query compound follows.
Summary for this compound, C=CC(=O)Nc1cccc(Oc2ncnc(N)c2-c2ccc(OCc3ccccc3)c(F)c2)c1 : IC50 is < 100 nM

----------
List of pIC50 values.
Target: full-length human BTK (Homo sapiens (Human))
Assay: BTK IC50 enzyme assay (microfluidic off-chip mobility shift kinase assay)
Details: incubated for 90 min. at 27 C; read-out: Time Dependent BTK Enzyme Assay IC50
pIC50: −log10 of the molar value.

Examples from the recorded data:
Summary for this compound, Nc1ncnc(Oc2ccc(Oc3ccccc3)cc2)c1-c1cccc(NC(=O)/C=C/CN2CCOCC2)c1 [A274] : pIC50 is > 7.00

Summary for this compound, C=CC(=O)Nc1cccc(Oc2ncnc(N)c2-c2cnn(Cc3cccc(OC)c3)c2)c1 [A198] : pIC50 is > 7.00

Summary for this compound, Nc1cccc(-c2c(Oc3ccc(Oc4ccccc4)cc3)ccnc2N)c1 [A300] : pIC50 is > 6.00

Others:
Summary for this compound, C=CC(=O)Nc1cccc(Oc2ccnc(N)c2-c2ccc(OCc3ccccc3)cc2)c1 [A149] : pIC50 is > 6.00

Summary for this compound, C=CC(=O)Nc1cncc(Oc2ncnc(N)c2-c2ccc(Oc3ccccc3)cc2)c1 [A60] : pIC50 is > 7.00

Summary for this compound, C=CC(=O)NCCNc1ncnc(N)c1-c1ccc(Oc2ccccc2)cc1 [A18] : pIC50 is > 6.00

----------
List of IC50 values.
Molecular target: full-length human BTK (Homo sapiens (Human))
Test: BTK IC50 enzyme assay (microfluidic off-chip mobility shift kinase assay)
Conditions: incubated for 90 min. at 27 C; read-out: Time Dependent BTK Enzyme Assay IC50
Method: The following describes a microfluidic, off-chip mobility shift kinase assay used to measure inherent potency of compounds against BTK enzyme. Compounds described by embodiments of the present invention were assayed using this protocol and the data from the same is recorded in Table 2 within the column labeled: “Time Dependent BTK Enzyme Assay IC50”. […]

Summary for this compound, C=CC(=O)Nc1cccc(Oc2ncnc(N)c2-c2ccc(Oc3ccccc3)nc2)c1 [A268] : IC50 is < 100 nM

Query compound follows.
Summary for this compound, C=CC(=O)N[C@H]1CC[C@@H](Nc2ncnc(N)c2-c2ccc(OCc3ccccc3)cc2)CC1 [A154] : IC50 is > 1000 nM

----------
Molecular target: full-length human BTK (Homo sapiens (Human), UniProt Q06187)
Experiment: BTK IC50 enzyme assay (microfluidic off-chip mobility shift kinase assay)
Settings: incubated for 90 min. at 27 C; read-out: Time Dependent BTK Enzyme Assay IC50
List of IC50 values.

Summary for this molecule, C=CC(=O)N1CC[C@@H](CNc2ncnc(N)c2-c2ccc(Oc3ccc(C#N)cc3)cc2)[C@H](O)C1 (racemic) : IC50 is < 1000 nM

Query molecule follows.
Summary for this molecule, C=CC(=O)N1CCC=C(c2c(N)ncnc2Oc2ccc(Oc3ccccc3)cc2)C1 : IC50 is < 100 nM

Recorded values, source patent US9580449B2.
